Catalogue of self-cleavage readings, one per entry.
B1: Hairpin Ribozyme (parent)
chain: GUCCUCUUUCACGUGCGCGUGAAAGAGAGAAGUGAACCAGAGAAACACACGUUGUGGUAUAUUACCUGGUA

- Variants of: B1
- Protocol Details: self-cleavage, relative activity (ratio to wild type); higher = more cleavage; co-transcriptional
Test Readout: self-cleavage

1) GUUCUCUUUCACGUGCGCGUGACAGAGAGAAGUGAACCAGAGAAACACACGUUGUGGUAUAUUACCUGGUA [C3U A23C] ... 0.408
2) GUCCUCUUUCACGUGCGCGUGAAAGAGAGAAGUGAACCAGAGUAACACACGUUGUGGAAUAUUACCUGGUA [A43U U58A] ... 0.0678
3) GUCCUCUUUCACGUGCGCGUGAAAGAGAGAAGUUAACCAGAGAAACGCACGUUGUGGUAUAUUACCUGGUA [G34U A47G] ... 0.444
4) GUCCUCUUUCACGUGCGCGUGAAAGAGAGAAGUGAACCAGAGAAACACACGUUGUGGUAUAGUAACUGGUA [U62G C65A] ... 0.157
5) CUCCUCUUUCACGUGCGCGGGAAAGAGAGAAGUGAACCAGAGAAACACACGUUGUGGUAUAUUACCUGGUA [G1C U20G] ... 0.0342
6) GUCCUCUUUCACGUGCGCGUGAAAGCGAGAAGUGAACCAGAGAAACACACGUUGUGGUAUAUUACGUGGUA [A26C C66G] ... 0.12
7) GUCCUCUUUCACGGGCGCGUGAAAGAGAGAAGUGAACCAGAGAAACGCACGUUGUGGUAUAUUACCUGGUA [U14G A47G] ... 0.157
8) GUCCUCUUUCACGUGUGCGUGAAAGAGAGAAGUGAACCAGAGACACACACGUUGUGGUAUAUUACCUGGUA [C16U A44C] ... 0.0379
9) GUCCUCUUUCACGUGCGCGUGAAAGAGACAAGUGAACCAGAGAAACACACGUUGUGGUAUAUAACCUGGUA [G29C U63A] ... 0.217
10) GUCCUCUUUCACGUGCGCGUGAAAGAGAGAAGUGCAUCAGAGAAACACACGUUGUGGUAUAUUACCUGGUA [A35C C37U] ... 0.486
11) GUCCUUUUUCACGUGCGCGUGAAAGAGAGAAGUGAACCAGAGCAACACACGUUGUGGUAUAUUACCUGGUA [C6U A43C] ... 0.0901
12) GUCCUCUUUCACGUGCGCGUGAAAGAGAUAAGUGAACCAGAGAAACACAUGUUGUGGUAUAUUACCUGGUA [G29U C50U] ... 0.163
13) GUCCUCUUUCACGUGCGCGUGAAAGAGAGAAGUGAACCAGGGAAACACACGUUGUGGUAUAUUACCCGGUA [A41G U67C] ... 0.483
14) GUCCUCUUUCACGUGCGCGUGAAAGAGAGAAAUGAACCAGAAAAACACACGUUGUGGUAUAUUACCUGGUA [G32A G42A] ... 0.0757
15) GUCCUCUUUCACGUGCGCGUGAAAGAGCGAAGUGAACCAGAGAAACACACGUUAUGGUAUAUUACCUGGUA [A28C G54A] ... 0.301
16) GUCCUCUUUCACGUGCGCGUGAAAGAGAGAAGUGAACCAGAGAAACACACCUUGUGGUAUAUUACCUGGGA [G51C U70G] ... 0.704
17) GUCCUCUUUCACGUGCGCGUGAGAGAGAGAAGUGAACCAGAGAAACACACGUUGUGGUAUAUUACCUCGUA [A23G G68C] ... 0.101
18) GUCCUCUUUCACGUGCGCGUUAAAGAGAGAAGUGAACCAGAGAAACACACGUUGUGGUAUAUAACCUGGUA [G21U U63A] ... 0.105
19) GUCCUCUCUCACGUGCGCGUGAAAGAGAGAAGUGAACCAGAGAAACACACGUUGUGGUAUAUUACCUGUUA [U8C G69U] ... 0.186
20) GUCCUCUUUCACGUCCGCGUGAAAGAGAGAAGUGAACCAGAGAAACACACGUUGUGGUAUAUUAACUGGUA [G15C C65A] ... 0.928
21) GUCCUCUUUCACGUGCGCGGGAAAGAGAGAAGUGAACCAGAGAAACACACGUUGUCGUAUAUUACCUGGUA [U20G G56C] ... 0.312
22) GUCCUCUUUCACGUGCGCGUGAAAGAGAGAAGUGAACCAGAGAAACACAGGUUGUGGUAUAUUACCUGGUC [C50G A71C] ... 0.69
23) GUCCUCUUUCACGUGCGCGUGAGAGAGAAAAGUGAACCAGAGAAACACACGUUGUGGUAUAUUACCUGGUA [A23G G29A] ... 0.0583
24) GUCCUCUUUCACGUGCGCGUGAAAGAGAGAAGUGAAACAGAGAAACGCACGUUGUGGUAUAUUACCUGGUA [C37A A47G] ... 0.0917
25) GUCCUCUUUGACGUGCGCGUGAAAGAGAGAAGUGAACAAGAGAAACACACGUUGUGGUAUAUUACCUGGUA [C10G C38A] ... 0.168
26) GUCCUCUUUCACGUGCGCGUGAAAGAGAGAAGUGAACCAGAGAAACACACGUAGUGGAAUAUUACCUGGUA [U53A U58A] ... 0.746
27) GUCCUCUAUCACGUGCGCGUGAAAGAGAGAAGUGAACCAGAGAAACACACGUUGUGGUAUGUUACCUGGUA [U8A A61G] ... 0.0847
28) GUCCUCUUUCACGUACGCGUGAAAGAGAGAAGUGAACCAGAGAAACACACGUUGUGGUAUAUUACCUCGUA [G15A G68C] ... 0.219
29) GUCCUGUUUCACGUGCGCGUGAAAGAGAGAAGUGAACCAGAGAAACACACGUUGUGGUAUGUUACCUGGUA [C6G A61G] ... 0.147
30) GUCCUCUUUCAGGUGCGCGUGAAAGAGAGAAGUGAACCAGAGACACACACGUUGUGGUAUAUUACCUGGUA [C12G A44C] ... 0.202
31) GUCCUCUUUCACGUGCGCGCGAAAGAGAGAAGUGAACCAGAGAAACAUACGUUGUGGUAUAUUACCUGGUA [U20C C48U] ... 0.175
32) GUCCUCUUUCACGUGCGCGUGACAGAGAGAAGGGAACCAGAGAAACACACGUUGUGGUAUAUUACCUGGUA [A23C U33G] ... 0.171
33) GUCCUCUUACACGUGCGCGUGAAAGAGAGAAGUGAACCAGAGAAACACACGUUGUGGUAUAAUACCUGGUA [U9A U62A] ... 0.174
34) GUCCUCUUCCACGUGCGCGUGAAAGAGAGAAGUGAACCAGAGAAACAGACGUUGUGGUAUAUUACCUGGUA [U9C C48G] ... 0.145
35) GUCCUGUUUCACGUGCGCGUGAAAGAGAGAAGUGGACCAGAGAAACACACGUUGUGGUAUAUUACCUGGUA [C6G A35G] ... 0.414
36) GACCUCUUUCACGUGCGCGUGAAAGAGAGAAGUGAACCAGAGAAACACACGUUGUGGUAUAUGACCUGGUA [U2A U63G] ... 0.0633
37) GUCCUCUUUCUCGUGCGCGUGAAAGAGAGAAGCGAACCAGAGAAACACACGUUGUGGUAUAUUACCUGGUA [A11U U33C] ... 0.152
38) GUCCUCUUUCACGUGCGCGUGAAAGAGAGAAGUGAACGAGAGAAACACACGUUGUGGCAUAUUACCUGGUA [C38G U58C] ... 0.185
39) GUUCUCUUUCACGUGCGCGUGAAAGAGAGAAGUGACCCAGAGAAACACACGUUGUGGUAUAUUACCUGGUA [C3U A36C] ... 0.369
40) GUCCUCUUUCACGUGCGCAUGAAAGAGAGAAGUGAACCAGAGAAACGCACGUUGUGGUAUAUUACCUGGUA [G19A A47G] ... 0.183
41) GUCCUCUUUCACGUGCGCGUGAAAGACAGAAGUGAGCCAGAGAAACACACGUUGUGGUAUAUUACCUGGUA [G27C A36G] ... 0.14
42) GUCCUCUUUCACGUGCGCGUGAAAGUGAGGAGUGAACCAGAGAAACACACGUUGUGGUAUAUUACCUGGUA [A26U A30G] ... 0.142
43) GUCCUCUUUCACGUGCGCGUGCAAGAGAGAAGUGAACCAGAGAAACACACGUUGUGGUAUAUUUCCUGGUA [A22C A64U] ... 0.251
44) GUCCUCUGUCACGUGCGCGUGAAAGAGAGAAGUCAACCAGAGAAACACACGUUGUGGUAUAUUACCUGGUA [U8G G34C] ... 1.19
45) GUCCUUUUUCACGUGCGCGUGAAAGAGAGAAGUGAACCAGAGGAACACACGUUGUGGUAUAUUACCUGGUA [C6U A43G] ... 0.151
46) GUCCUCUUUCACGUGUGCGUGAAAGAGAGAAGUGAACCAGAGAAACACACGUCGUGGUAUAUUACCUGGUA [C16U U53C] ... 0.564

Where these numbers come from: the RNAGym collection of RNA variant scans (doi:10.7554/elife.80360)
